System: HS 578T breast
method-notes: NCI-60 one-dose screen, 48 h
settings: 10 µM unless noted
Compounds without any hit were thinned out: in the full panel of roughly 83,000, 20% have a hit. Calls of active or inactive are those of the source. How the source made its calls: active means growth percent below 10; inactive means the rest.
Hi! Could you answer with just one of these? t for active, f for inactive

Reference set, count: 5
N[C@H](C(=O)O)[C@@H]1CC(Cl)=NO1 : f
C1=C(c2ccccc2)C(c2ccc(OCCN3CCCCC3)cc2)Oc2ccccc21 (stereo unspecified) : f
CCCCCCCCCCCCCCCCN(CC)CC : t
CN(C)c1ccc(N=Nc2cccc3ccccc23)cc1 : f
COc1ccc2nc3cc(Cl)ccc3c(NCCNc3c4ccc(Cl)cc4nc4ccc(OC)cc34)c2c1 : t

(Q) For this molecule, state the assay outcome: Cc1ccc2nc(C[n+]3ccc4ccccc4c3)ccc2c1
(A) f

(Q) For this molecule, state the assay outcome: CCOC(=O)/C=C/c1ccc([N+](=O)[O-])o1
(A) f

(Q) For this molecule, state the assay outcome: CC1OC2CC(=O)OC2C2=C1C(=O)c1c(O)cccc1C2=O (stereo unspecified)
(A) t

(Q) For this molecule, state the assay outcome: COc1cc(NS(C)(=O)=O)ccc1Nc1c2ccccc2nc2ccccc12
(A) t

(Q) For this molecule, state the assay outcome: CCC(CC)COC(=O)c1ccc(O)c(O)c1
(A) f

(Q) For this molecule, state the assay outcome: Cc1cc(N)c2ccccc2[n+]1CCCCCCCCCC[n+]1c(C)cc(N)c2ccccc21
(A) f

----------
Test system: MDA-MB-231 breast
method-notes: NCI-60 one-dose screen, 48 h
settings: 100 µM
The panel holds about 83,000 compounds, 20% with a hit somewhere; the sample as a whole holds those more often. Calls of active or inactive are those of the source. Rule for the calls: active = growth percent below 10; inactive = the rest.
Hi! Could you answer with just one of these? 1 (yes) (active), 0 (no) (inactive)

CN(C)C(=O)c1ccc(SC(=S)NCc2ccccc2)cc1 : 0 (no)
O=C(O)c1c(Cl)c(Cl)c(Cl)c(Cl)c1-c1c2cc(I)c(=O)c(I)c-2oc2c(I)c(O)c(I)cc12 : 1 (yes)
O=C(Nc1c(Cl)cccc1Cl)Oc1cccc2cccnc12 : 0 (no)

Consider the record given below.
(Q) For this compound, state the assay outcome: COc1ccc(-c2cscc2N)cc1
(A) 0 (no)

----------
Test system: HS 578T breast
method-notes: NCI-60 one-dose screen, 48 h (100 = growth as untreated, 0 = no growth, -100 = all killed)
settings: 10 µM unless noted
The panel holds about 83,000 compounds, 20% with a hit somewhere; the sample as a whole holds those more often.
readout-type: growth (%)
Report as a plain number; the unit % is understood.

Please review the entries below; each comes with its answer.
O=C1C=CC(=O)N1C1c2ccccc2-c2ccccc21 : 102
Nc1ccc(SSc2ccc(N)cc2)cc1 : 109
Cc1cc2nc(CS)[nH]c2cc1C : 103
Cc1ccnc2c1ccc1c(C)ccnc12 : 52.6
COC(=O)c1nc(=S)[nH]c(C(=O)OC)c1C(=O)c1ccc2ccccc2c1 : 103
CCCCCCC(C)c1ccccc1O (configuration not stated) (tested in a mixture with another compound) : 101

(Q) Give growth for CN(Cc1cnc2nc(N)nc(N)c2n1)c1ccc(C(=O)NC(CCC(=O)O)C(=O)O)cc1 (configuration not stated) tested on HS 578T breast.
(A) 76.6

(Q) Give growth for C/C=C1\SC(=S)NC1=O tested on HS 578T breast.
(A) 104

(Q) Give growth for CC(C)c1ccc2nc3ccc(C(=O)NCCN4CCN(c5ccccc5)CC4)cn3c(=O)c2c1 tested on HS 578T breast.
(A) 59.2

(Q) Give growth for N#CSCc1ccc(CSC#N)c(Cl)c1 tested on HS 578T breast.
(A) 94.1

(Q) Give growth for C=C(Cl)C(=NC(C)(C)C)Nc1ccccc1C tested on HS 578T breast.
(A) 96.5

(Q) Give growth for CCN(CC)CCOc1ccc(-c2nc3cc(Cl)ccc3s2)cc1 tested on HS 578T breast.
(A) -29.2

----------
System: TK-10 renal
method-notes: NCI-60 one-dose screen, 48 h
settings: 10 µM unless noted
Method: Growth inhibition of the TK-10 human tumor cell line is measured as a screen for anti-cancer activity. Cells are grown in 96 well plates and exposed to the test compound for 48 hours. Compounds are tested at a single concentration, which is 10^-5 M for most compounds. The reported endpoint is percent growth (GI% or GIPRCNT), where numbers from 0 - 100% represent growth inhibition, and numbers from -100% - 0 represent cell death. For example, a value of 40 represents 60% growth inhibition. […]
The panel holds about 83,000 compounds, 20% with a hit somewhere; the sample as a whole holds those more often. Calls of active or inactive are those of the source. How the source made its calls: active means growth percent below 10; inactive means the rest.
Hi! Could you answer with just one of these? active, inactive

Reference set, count: 5
O=C1C=CC(=O)N1C1c2ccccc2-c2ccccc21 : inactive
CCN(CC)CCOc1ccc(-c2nc3cc(Cl)ccc3s2)cc1 : active
O=C1c2ccccc2C(=O)c2sc(Nc3cccc(Cl)c3)nc21 : inactive
CC(C)(C)CC(C)(C)c1ccc(OCCSC(=N)N)cc1 : inactive
O=Nc1ccccc1N=O : inactive

Consider the record given below.
(Q) For this molecule, state the assay outcome: CNc1ccc2c(c1)c1ccccc1n2C
(A) inactive

----------
Tested on: CCRF-CEM leukemia
method-notes: NCI-60 one-dose screen, 48 h (100 = growth as untreated, 0 = no growth, -100 = all killed)
settings: 10 µM unless noted
The panel holds about 83,000 compounds, 20% with a hit somewhere; the sample as a whole holds those more often.
readout-type: growth (%)
Report as a plain number; the unit % is understood.

Oc1c(Br)c(Br)c(O)c(Br)c1Br : 15.8
CN(C)c1ccc(/C=N/N=C(\C#N)[S][Sn]([Cl])([c]2ccccc2)[c]2ccccc2)cc1 : -20.2
Cn1c2c(c3ccccc31)CCN1C[C@@H]3CCCC[C@H]3C[C@@H]21 : 25.2

(Q) For the compound C=CCOc1ccc(N=NC(C#N)C#N)cc1 , report growth.
(A) 13.6

(Q) For the compound CCCCCCCCCCCCCCCCOP(=O)([O-])OCC[N+](C)(C)C , report growth.
(A) 1.24

(Q) For the compound Cc1ccc(N=C=C(c2ccccc2)c2ccccc2)cc1 , report growth.
(A) 1.63

----------
Tested on: SK-MEL-2 melanoma
method-notes: NCI-60 one-dose screen, 48 h
settings: 10 µM unless noted
Procedure: Growth inhibition of the SK-MEL-2 human tumor cell line is measured as a screen for anti-cancer activity. Cells are grown in 96 well plates and exposed to the test compound for 48 hours. Compounds are tested at a single concentration, which is 10^-5 M for most compounds. The reported endpoint is percent growth (GI% or GIPRCNT), where numbers from 0 - 100% represent growth inhibition, and numbers from -100% - 0 represent cell death. For example, a value of 40 represents 60% growth inhibition. […]
The panel holds about 83,000 compounds, 20% with a hit somewhere; the sample as a whole holds those more often. Activity calls are given as the source filed them. How the source made its calls: active means growth percent below 10; inactive means the rest.
Hi! Could you answer with just one of these? active, inactive

(Q) For this compound, state the assay outcome: CNc1ccc(N)cc1
(A) inactive

----------
System: MALME-3M melanoma
method-notes: NCI-60 one-dose screen, 48 h
settings: 10 µM unless noted
This is part of a sample that, as a whole, favours compounds with a hit. Of some 83,000 tested, about 20% had one in any assay. Calls of active or inactive are those of the source. The calls were made as follows: active = growth percent below 10; inactive = the rest.
Hi! Could you answer with just one of these? class 1 (active), class 0 (inactive)

Cc1cc2nc(CS)[nH]c2cc1C : class 0

(Q) For this compound, state the assay outcome: CCCCCCCCCCCCCCCCOP(=O)([O-])OCC[N+](C)(C)C
(A) class 0

(Q) For this compound, state the assay outcome: Cc1cc(C(C)(CC(C)C)c2ccc(O)c(C)c2)ccc1O
(A) class 0

(Q) For this compound, state the assay outcome: C=C(Cl)C(=NC(C)(C)C)Nc1ccccc1C
(A) class 0

(Q) For this compound, state the assay outcome: CCOC(=O)/C=C/c1ccc([N+](=O)[O-])o1
(A) class 1

(Q) For this compound, state the assay outcome: CN(C)C(=O)SC1=C(c2c(Cl)cccc2Cl)C(=O)c2ccccc21
(A) class 1

----------
Test system: NCI-H23 lung
method-notes: NCI-60 one-dose screen, 48 h
settings: 10 µM unless noted
Compounds without any hit were thinned out: in the full panel of roughly 83,000, 20% have a hit. Active and inactive are the calls of the source. The calls were made as follows: active = growth percent below 10; inactive = the rest.
Hi! Could you answer with just one of these? yes (1) (active), no (0) (inactive)

N#CSCc1ccc(Cl)c(CSC#N)c1 : no (0)
O=C1NC(=O)/C(=C/C=C/c2ccccc2)S1 : no (0)
CCOC(=O)/C(=C\c1ccc(-c2ccccc2)cc1)C(C)=O : no (0)
CN(C)C(=O)SC1=C(c2c(Cl)cccc2Cl)C(=O)c2ccccc21 : no (0)

(Q) For this molecule, state the assay outcome: CCOc1ccc(-c2nc3ccc(-c4nc5ccc(N6CCN(C)CC6)cc5[nH]4)cc3[nH]2)cc1
(A) yes (1)

(Q) For this molecule, state the assay outcome: O=C(/C=C/C=C/c1ccccc1)c1ccco1
(A) no (0)

(Q) For this molecule, state the assay outcome: CCC(CC)COC(=O)c1ccc(O)c(O)c1
(A) no (0)

Source: PubChem BioAssay (NCI)
